- System: MDA-MB-435 melanoma
- Assay text: NCI-60 one-dose screen, 48 h (100 = growth as untreated, 0 = no growth, -100 = all killed)
- Conditions used: 10 µM unless noted
Compounds without any hit were thinned out: in the full panel of roughly 83,000, 20% have a hit.
Decision: growth beneath 40% gives 1.0; growth meeting or exceeding 40% gives 0.0.

{"Compound": "O=[N+]([O-])c1cnc(N2CCN(CC3CC3)CC2)nc1N1CCN(CC2CC2)CC1", "Experimental system": "MDA-MB-435 melanoma", "Group label": 0.0}
{"Compound": "C=CC(=O)Nc1cccc(Nc2nc(SC)nc(-c3cccc([N+](=O)[O-])c3)c2C#N)c1", "Experimental system": "MDA-MB-435 melanoma", "Group label": 0.0}
{"Compound": "COc1ccc(S(=O)(=O)N2CCN(C)CC2)cc1NC(=O)c1[nH]c(C)c2c1CCCCC2=O", "Experimental system": "MDA-MB-435 melanoma", "Group label": 0.0}
{"Compound": "COc1cc2c(cc1O)CC[C@@H]1[C@@H]2CC[C@]2(C)[C@@H](OCCN(C)C)CC[C@@H]12", "Experimental system": "MDA-MB-435 melanoma", "Group label": 1.0}
{"Compound": "CCC#CC[C@H](O)C/C=C1/C(=O)C=C[C@@H]1C/C=C\\CCCC(=O)OC", "Experimental system": "MDA-MB-435 melanoma", "Group label": 1.0}

Please state whether growth is below 40% for `COC(=O)c1ccc(Cn2cnc3c(N)ncnc32)cc1`
0.0

Please state whether growth is below 40% for CC1=C(O)C(=O)C(C(C#N)(C#N)C(C#N)C#N)C1 (stereo not given)
0.0

Please state whether growth is below 40% for COc1ccc(/C=N/C2=C(C#N)C(c3ccc(N(C)C)cc3)c3ccc4ccccc4c3O2)cc1 (stereo not given)
1.0

Please state whether growth is below 40% for CCN(CC)c1ccc2c(c1)Oc1nc(N)c(C#N)c(N)c1C2Sc1ccc(SC)cc1 (stereo not given)
1.0

Please state whether growth is below 40% for `O=C(CCN1C(=O)/C(=C/c2ccc(Cl)cc2)SC1=S)NCCCN1CCOCC1`
0.0
